The origin of these recorded values is PubChem BioAssay (NCI).

experiment: NCI Yeast Anticancer Drug Screen. Data for the bub3 strain (AID 167); details: S. cerevisiae bub3 mutant strain, at 5.0 µM (retest, dose inferred, filed as 0.5), active compounds read high
The panel holds about 79,000 compounds, 15% with a hit somewhere; the sample as a whole holds those more often.
Each entry below lists one item and its recorded growth inhibition value.
Lab book: enter the figure in %, no units written.

Below, each entry is followed by its recorded growth inhibition result.
Compound	U	growth inhibition
N#CC1(C#N)C2C=CC(C3CCC=C32)C1(C#N)C#N (stereo not given)	%	25
Cc1cc2c(cc1O)CC[C@@H]1[C@@H]2CC[C@]2(C)[C@@H](O)CC[C@@H]12	%	-42
ClC(Cl)(Cl)C1=CC2c3ccccc3C1c1ccccc12	%	-9
Cc1csc2[n+]1C(=O)/C(=C\c1ccc([N+](=O)[O-])cc1)S2	%	26
Clc1ccc(/C=N\Nc2ccccc2)c(Cl)c1	%	-2

Query: What growth inhibition value was documented for this compound, CN(C)C(=S)Oc1ccc(C(C)(C)C)cc1 ?
Reply: -65

Query: What growth inhibition value was documented for this compound, C/C(=N/O)c1ccc2c(c1)C(C)c1ccccc1-2 (stereo not given) ?
Reply: -62

Query: What growth inhibition value was documented for this compound, Ic1ccc2c(c1)N(c1ccccc1)c1cc(N=c3ccc4nc5ccc(I)cc5n(-c5ccccc5)c-4c3)ccc1N2 ?
Reply: -8

Query: What growth inhibition value was documented for this compound, O=C(Nc1ccc(-c2cn3ccccc3n2)cc1)c1cc(Br)ccc1O ?
Reply: 5

Query: What growth inhibition value was documented for this compound, CC1=C(C(=O)Nc2cccc(Cl)c2)C(c2ccccc2F)C(C(=O)Nc2cccc(Cl)c2)=C(C)N1 ?
Reply: 56

====

assay: NCI Yeast Anticancer Drug Screen. Data for the rad50 strain (AID 155);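 also: 0% = growth of vehicle-only cultures of the same strain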; conditions: S. cerevisiae rad50 strain growth inhibition; at 5.0 µM (retest, dose inferred, filed as 0.5); active compounds read high
Compounds without any hit were thinned out: in the full panel of roughly 79,000, 15% have a hit.
Property label: growth inhibition (%)
Lab book: enter the figure in %, no units written.

Below, each entry is followed by its recorded growth inhibition result.
Molecule	Experimental result
O=[N+]([O-])c1ccc2c(c1)/C(=C/c1ccc(O)cc1)c1ccccc1-2	9
Cc1cc(Cl)c2cc(Cc3ccc(Br)cc3)ccc2n1	-3
CCOC(=O)C[n+]1c(C)sc2ccccc21	-4

Query: What growth inhibition value was documented for this molecule, CC(=O)N(C(C)=O)C1=C2c3ccccc3N(S(=O)(=O)c3ccccc3)C2n2c(=O)n(-c3ccccc3)c(=O)n2C1 (configuration not stated) ?
Reply: 11

Query: What growth inhibition value was documented for this molecule, CC(=NCC(=O)O)c1ccccc1 ?
Reply: -12

Query: What growth inhibition value was documented for this molecule, Cc1cccc2nc3nc(Cl)c(Cl)nc3n12 ?
Reply: 4

Query: What growth inhibition value was documented for this molecule, NC(=O)NOCC1NC(=O)NC1=O (configuration not stated) ?
Reply: -24

Query: What growth inhibition value was documented for this molecule, O=C1CC(c2ccccc2)C(c2ccccc2)CO1 (configuration not stated) ?
Reply: 85

Query: What growth inhibition value was documented for this molecule, CC1(C)CC(=O)C(CSC(=O)c2ccccc2)=C(O)C1 ?
Reply: -1

Query: What growth inhibition value was documented for this molecule, CCC(=O)Nc1ccc(NC(C)=O)cc1 ?
Reply: -6

Query: What growth inhibition value was documented for this molecule, O=C(Cc1ccc(C2=NCCN2)cc1[N+](=O)[O-])c1ccc(C2=NCCN2)cc1 ?
Reply: -3

Query: What growth inhibition value was documented for this molecule, OCCc1ccc(-n2cnc3c(Nc4ccc(Cl)cc4)ncnc32)cc1 ?
Reply: -3

====

experiment: NCI Yeast Anticancer Drug Screen. Data for the cln2 rad14 strain (AID 165);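 also: 0% = growth equal to vehicle treated cultures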; details: S. cerevisiae cln2 rad14 strain, at 50.0 µM (retest, dose inferred, filed as 5.0), active compounds read high
Compounds without any hit were thinned out: in the full panel of roughly 79,000, 15% have a hit.
Note to self: values exactly at 60% are Met. So growth inhibition at or above 60% is Met, below is Not met.

Compound	Discrete label
O=C(c1ccccc1)c1ccc(Cl)cc1	Not met

Query: Threshold query (growth inhibition >= 60%) on NC(Cc1ccccc1)c1ccc2cccc3c2c1CC3 (configuration not stated)
Reply: Not met

Query: Threshold query (growth inhibition >= 60%) on C/C(=N\Nc1n[nH]c(=S)n1N)c1c(O)cc(C)oc1=O
Reply: Not met

Query: Threshold query (growth inhibition >= 60%) on COc1ccccc1C1C(Cl)C(=O)N1n1cnc2ccccc2c1=O (configuration not stated)
Reply: Not met

Query: Threshold query (growth inhibition >= 60%) on C=C(Br)COc1ccc2c(C)cc(=O)oc2c1
Reply: Not met

====

experiment: NCI Yeast Anticancer Drug Screen. Data for the mlh1 rad18 strain (AID 175); details: S. cerevisiae mlh1 rad18 strain growth inhibition; at 5.0 µM (retest, dose inferred, filed as 0.5); active compounds read high
The panel holds about 79,000 compounds, 15% with a hit somewhere; the sample as a whole holds those more often. Calls of active or inactive are those of the source. Rule as the data show it: active = growth inhibition above about 70%; inactive = the rest.
Each entry below lists one item and its recorded growth inhibition value.

Below, each entry is followed by its recorded growth inhibition result.
Molecule	growth inhibition
O=C(O)CSc1cc2c3ccccc3sc2c2ccccc12	12% (inactive)
CC(C)CCCC(C)C1CCC2C3CCC4=CC(O)CCC4(C)C3CCC12C (stereo unspecified)	-3% (inactive)
COc1ccc(Oc2c(OC)cc(NCCCCCNC(C)C)c3ncccc23)cc1	19% (inactive)

Query: What growth inhibition value was documented for this molecule, CN1C(C)(C)CC(O)(C#N)CC1(C)C ?
Reply: 12% (inactive)

Query: What growth inhibition value was documented for this molecule, Cn1c(CCC2(C)Cc3ccccc3C(=O)O2)cc2ccccc2c1=O (stereo unspecified) ?
Reply: 2% (inactive)

Query: What growth inhibition value was documented for this molecule, O/N=C(/CCc1ccccc1Cl)c1ccccc1 ?
Reply: 1% (inactive)

Query: What growth inhibition value was documented for this molecule, CCOC(=O)/C(=C\c1ccc(C)cc1)C(C)=O ?
Reply: 22% (inactive)

====

Test: NCI Yeast Anticancer Drug Screen. Data for the sgs1 mgt1 strain (AID 161);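 also: 0% = growth of cultures given vehicle only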
Conditions: S. cerevisiae sgs1 mgt1 strain, at 50.0 µM, active compounds read high
Description: Growth inhibition of yeast strains with defined genetic alterations is measured as a screen for potential anti-cancer activity. Selected strains with alterations in DNA damage repair or cell cycle control were exposed to compounds and growth inhibition was measured relative to vehicle treated controls. The strain used in this assay is sgs1 mgt1
About 79,000 compounds went through this panel and 15% of them were active in at least one assay; those are over-represented in the sample as a whole.
Note to self: values exactly at 80% are true. So growth inhibition at or above 80% is true, below is false.

Molecule	Discrete label
CCCCCC(CCCCC)OC(=O)CCN(CCCCC)CCCCC	true
CC(O)c1cccnc1 (stereo not drawn)	false
CS(=O)(=O)N\N=C1/C=C\C(=N/NS(C)(=O)=O)CCc2ccc(cc2)CC1	true

Query: Threshold query (growth inhibition >= 80%) on O=C(Nc1ccc(-c2cn3ccccc3n2)cc1)c1cc(Br)ccc1O
Reply: false

Query: Threshold query (growth inhibition >= 80%) on c1ccc2sc(SSN3CCOCC3)nc2c1
Reply: false

Query: Threshold query (growth inhibition >= 80%) on COC(=O)C1c2cc(C)ccc2-c2ccc(C)cc21
Reply: false

Query: Threshold query (growth inhibition >= 80%) on N#CC(CCCCl)(c1ccccc1)c1ccccc1
Reply: true

Query: Threshold query (growth inhibition >= 80%) on CCOC(=O)n1c2ccccc2c(=O)n1CCO
Reply: true

Query: Threshold query (growth inhibition >= 80%) on C1CCC(CCCCc2nn[nH]n2)CC1
Reply: true

====

experiment: NCI Yeast Anticancer Drug Screen. Data for the bub3 strain (AID 167); settings: S. cerevisiae bub3 mutant strain, at 50.0 µM, active compounds read high
The panel holds about 79,000 compounds, 15% with a hit somewhere; the sample as a whole holds those more often.
Property label: growth inhibition (%)
Lab book: enter the figure in %, no units written.

Molecule	U	growth inhibition
CCC(C)(C[NH-])C[NH-].[Cl][Pt+2][Cl]	%	-14.7

Query: What growth inhibition value was documented for this molecule, COc1cc(OC)c(C/C=C/c2ccccc2)cc1O ?
Reply: -27.8

Query: What growth inhibition value was documented for this molecule, CC(C)O[C@H]1N(C2CC(N=[N+]=[N-])C(CO)O2)C(=O)NC(=O)[C@]1(C)Br (stereo not given in full) ?
Reply: 90.5

Query: What growth inhibition value was documented for this molecule, C/C(=N\NC(=S)Nc1ccc(S(N)(=O)=O)cc1)c1ccccn1 ?
Reply: 37.6

Query: What growth inhibition value was documented for this molecule, O=C1CSC(c2ccccc2O)N1c1ccc(-n2c(-c3ccccc3)nc3ccccc3c2=O)cc1 (stereo not given) ?
Reply: 74.8

Query: What growth inhibition value was documented for this molecule, CCCCCCCCCCCCCCCC[n+]1ccc(/C=C/c2ccccc2)cc1 ?
Reply: 97.8

Query: What growth inhibition value was documented for this molecule, COc1ccccc1NC(=O)c1ccccc1F ?
Reply: -3.5

Query: What growth inhibition value was documented for this molecule, COc1ccc(/C(Cl)=C(\c2ccc(OCCN(C)C)cc2)c2ccc(OC(=O)C(C)(C)C)cc2)cc1 ?
Reply: 89.4

Query: What growth inhibition value was documented for this molecule, OC(CBr)c1cc(-c2ccccc2)nc2ccccc12 (stereo not given) ?
Reply: 69.3

Query: What growth inhibition value was documented for this molecule, C1=CC2OC2CCCCCCCC1 (mixture of isomers) ?
Reply: 50.7
